target: Glycogen synthase kinase-3 beta (Homo sapiens, UniProt P49841); assay: Inhibition of GSK3beta (unknown origin)
Sequence (P49841 whole entry): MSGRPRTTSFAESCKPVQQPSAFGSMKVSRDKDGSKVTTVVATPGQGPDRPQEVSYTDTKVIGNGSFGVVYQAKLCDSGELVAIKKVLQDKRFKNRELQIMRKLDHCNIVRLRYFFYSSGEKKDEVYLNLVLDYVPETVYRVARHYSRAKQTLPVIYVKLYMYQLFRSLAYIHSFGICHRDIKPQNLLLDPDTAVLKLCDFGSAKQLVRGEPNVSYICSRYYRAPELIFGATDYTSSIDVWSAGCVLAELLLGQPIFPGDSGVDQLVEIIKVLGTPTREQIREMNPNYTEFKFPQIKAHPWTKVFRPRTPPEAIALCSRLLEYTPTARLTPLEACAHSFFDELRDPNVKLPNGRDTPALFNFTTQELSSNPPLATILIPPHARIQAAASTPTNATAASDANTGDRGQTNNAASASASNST
ENDPOINT: pIC50
# log scale: pIC50 equals minus log10 of the concentration in mol/L

The recorded pIC50 for entry "O=C1NC(=O)C(c2cn3c4c(cc(F)cc24)CN(C(=O)N2CCCCC2)CC3)=C1c1cn2ccccc2n1" equals 9.05

----------
Assign pKi to each entry below.
# log scale: pKi equals minus log10 of the concentration in mol/L

Observed pKi on Rho-associated protein kinase 2 (Homo sapiens, UniProt O75116), entry OCCOc1cccc(CN2CCC(Nc3cccc4cnccc34)C2)c1 (configuration not stated) , equals 7.85

Observed pKi on Rho-associated protein kinase 2 (Homo sapiens, UniProt O75116), entry "C[C@H]1CNCCCN1S(=O)(=O)c1cccc2cncc(F)c12" , equals 6.48

----------
ENDPOINT: pIC50
# log scale: pIC50 equals minus log10 of the concentration in mol/L

Observed pIC50 on Mitogen-activated protein kinase 10 (Homo sapiens, UniProt P53779), entry N#CC(c1ccnc(OCc2ccc(CN3CCOCC3)cc2)n1)c1nc2ccccc2s1 (stereo unspecified) [BENTAMAPIMOD] , equals 6.64

----------
ENDPOINT: Ki (nM)
Respond numerically; units are nM and should not be typed.

Observed Ki on UniProtKB Q13464, entry OCCOc1cccc(CN2CCC(Nc3cccc4cnccc34)C2)c1 (stereo unspecified) , equals 5

----------
molecular target: Glycogen synthase kinase-3 alpha (Homo sapiens); test: Inhibition of GSK3alpha (unknown origin)
Sequence (P49840 whole entry): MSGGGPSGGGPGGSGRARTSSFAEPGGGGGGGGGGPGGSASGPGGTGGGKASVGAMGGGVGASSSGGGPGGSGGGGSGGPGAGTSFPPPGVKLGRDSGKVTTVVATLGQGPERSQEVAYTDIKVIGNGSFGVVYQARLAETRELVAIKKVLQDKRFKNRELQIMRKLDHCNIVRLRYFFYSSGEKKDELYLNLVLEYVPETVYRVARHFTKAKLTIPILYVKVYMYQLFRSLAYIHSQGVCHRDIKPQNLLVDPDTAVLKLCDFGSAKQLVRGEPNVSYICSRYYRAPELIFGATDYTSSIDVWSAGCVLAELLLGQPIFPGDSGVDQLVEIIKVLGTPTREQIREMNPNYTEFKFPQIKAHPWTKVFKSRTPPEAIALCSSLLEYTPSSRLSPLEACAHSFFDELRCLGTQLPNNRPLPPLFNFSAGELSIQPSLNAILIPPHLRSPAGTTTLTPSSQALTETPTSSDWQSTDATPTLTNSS
ENDPOINT: pIC50
# log scale: pIC50 equals minus log10 of the concentration in mol/L

The recorded pIC50 for entry "O=C1NC(=O)C(c2cn3c4c(cc(F)cc24)CN(C(=O)N2CCCCC2)CC3)=C1c1cn2ccccc2n1" equals 8.82

----------
ENDPOINT: Ki (nM)
Respond numerically; units are nM and should not be typed.

Observed Ki on Rho-associated protein kinase 2 (Homo sapiens), entry CN(C)C(C(=O)Nc1ccc2c(=O)[nH]ccc2c1)c1ccsc1 (stereo unspecified) , equals 2

----------
test: Inhibition of human recombinant IKKalpha
ENDPOINT: Ki (nM)
Respond numerically; units are nM and should not be typed.

The recorded Ki for entry "O=C1Nc2nc(-c3c(O)cccc3OCC3CC3)cc([C@@H]3CCCNC3)c2CO1" equals 135

----------
biological target: Rho-associated protein kinase 1 (Homo sapiens, UniProt Q13464)
Sequence (Q13464 whole entry): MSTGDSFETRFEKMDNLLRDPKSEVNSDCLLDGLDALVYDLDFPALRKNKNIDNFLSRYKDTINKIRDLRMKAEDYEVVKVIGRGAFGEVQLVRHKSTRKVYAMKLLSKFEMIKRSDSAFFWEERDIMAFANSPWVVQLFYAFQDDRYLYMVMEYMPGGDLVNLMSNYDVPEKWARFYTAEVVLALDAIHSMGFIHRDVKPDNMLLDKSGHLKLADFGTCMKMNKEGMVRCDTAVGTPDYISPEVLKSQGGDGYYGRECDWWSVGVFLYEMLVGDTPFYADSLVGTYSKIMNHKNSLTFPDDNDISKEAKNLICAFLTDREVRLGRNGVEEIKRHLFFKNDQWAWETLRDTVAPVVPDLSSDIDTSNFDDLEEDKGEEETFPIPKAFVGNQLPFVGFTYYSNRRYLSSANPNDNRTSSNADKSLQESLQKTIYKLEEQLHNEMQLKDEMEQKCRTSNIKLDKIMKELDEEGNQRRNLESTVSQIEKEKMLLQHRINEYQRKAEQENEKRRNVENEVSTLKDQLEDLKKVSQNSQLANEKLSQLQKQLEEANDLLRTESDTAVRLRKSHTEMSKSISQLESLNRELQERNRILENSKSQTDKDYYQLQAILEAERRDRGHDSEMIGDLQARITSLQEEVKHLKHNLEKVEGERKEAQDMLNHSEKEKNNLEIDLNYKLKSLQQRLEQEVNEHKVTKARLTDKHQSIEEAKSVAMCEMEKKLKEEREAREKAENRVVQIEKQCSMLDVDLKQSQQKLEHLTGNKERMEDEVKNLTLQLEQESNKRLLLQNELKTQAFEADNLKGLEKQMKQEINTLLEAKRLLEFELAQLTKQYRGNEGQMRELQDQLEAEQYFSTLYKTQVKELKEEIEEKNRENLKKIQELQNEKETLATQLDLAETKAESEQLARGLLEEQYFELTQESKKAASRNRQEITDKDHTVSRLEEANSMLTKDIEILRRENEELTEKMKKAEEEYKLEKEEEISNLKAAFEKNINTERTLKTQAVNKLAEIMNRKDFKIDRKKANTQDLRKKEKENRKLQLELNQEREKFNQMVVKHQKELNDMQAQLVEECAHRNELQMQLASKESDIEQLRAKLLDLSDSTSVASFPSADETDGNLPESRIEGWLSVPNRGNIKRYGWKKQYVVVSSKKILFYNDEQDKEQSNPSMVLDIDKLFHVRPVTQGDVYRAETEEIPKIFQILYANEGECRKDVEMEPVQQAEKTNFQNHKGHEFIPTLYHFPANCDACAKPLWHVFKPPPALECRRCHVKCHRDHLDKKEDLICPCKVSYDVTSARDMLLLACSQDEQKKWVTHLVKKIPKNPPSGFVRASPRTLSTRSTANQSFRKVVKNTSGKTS
ENDPOINT: pKi
# log scale: pKi equals minus log10 of the concentration in mol/L

The recorded pKi for entry CN(C)C(C(=O)Nc1ccc2c(=O)[nH]ccc2c1)c1ccsc1 (stereo unspecified) equals 8.70

----------
ENDPOINT: pIC50
# log scale: pIC50 equals minus log10 of the concentration in mol/L

Observed pIC50 on Mitogen-activated protein kinase 9 (Homo sapiens, UniProt P45984), entry "c1ccc2c(c1)Cc1cccc3[nH]nc-2c13" , equals 7.40

Observed pIC50 on Mitogen-activated protein kinase 9 (Homo sapiens, UniProt P45984), entry N#CC(c1ccnc(OCc2ccc(CN3CCOCC3)cc2)n1)c1nc2ccccc2s1 (configuration not stated) , equals 7.05

----------
molecular target: Rho-associated protein kinase 1 (Homo sapiens)
ENDPOINT: pIC50
# log scale: pIC50 equals minus log10 of the concentration in mol/L

Observed pIC50 on Rho-associated protein kinase 1 (Homo sapiens), entry "CN(C)c1ccc(C(=O)Nc2cccc(NC(=O)COc3ccc4c(=O)ccoc4c3)c2)cc1" , equals 7.82
